ASSAYED_TARGET: Peroxisome proliferator-activated receptor gamma (Homo sapiens) (UniProt P37231)
Sequence (P37231 whole entry, looked up): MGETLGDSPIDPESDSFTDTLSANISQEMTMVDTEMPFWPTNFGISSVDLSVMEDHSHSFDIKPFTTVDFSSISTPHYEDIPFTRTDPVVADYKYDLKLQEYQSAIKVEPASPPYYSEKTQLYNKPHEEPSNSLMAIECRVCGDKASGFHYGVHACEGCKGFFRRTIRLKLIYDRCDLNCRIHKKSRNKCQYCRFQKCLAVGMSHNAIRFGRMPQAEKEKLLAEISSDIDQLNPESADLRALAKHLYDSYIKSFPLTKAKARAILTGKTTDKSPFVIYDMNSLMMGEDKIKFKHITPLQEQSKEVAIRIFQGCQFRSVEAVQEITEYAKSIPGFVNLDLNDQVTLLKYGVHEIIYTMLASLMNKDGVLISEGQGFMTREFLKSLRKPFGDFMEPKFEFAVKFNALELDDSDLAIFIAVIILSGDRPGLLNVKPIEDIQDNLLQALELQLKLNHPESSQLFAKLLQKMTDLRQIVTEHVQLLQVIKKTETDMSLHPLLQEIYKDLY
ASSAY_NOTES: qHTS assay to identify small molecule agonists of the peroxisome proliferator-activated receptor gamma (PPARg) signaling pathway (AID 743094)
REPORTED_CONDITIONS: HEK293H PPARg-UAS-bla, beta-lactamase FRET ratio, 17 h; series mostly up to 57 µM
Results filed as inconclusive are left out. Active and inactive are the calls of the source. Calls come from the whole dose curve; as a rule, active = well fitted activation curve with a large enough effect in the signal ratio in the repeat runs (not every such curve was filed as active); inconclusive = weak or mixed curves, or effect the other way; inactive = no such curve, though single readings can be large or run the other way; the % refers to the signal ratio. Positions of bridges follow the written chain, without caps; N, C: chain ends. Non-standard residues stand in square brackets, D forms with d. Residues, ends and D or L forms follow the SMILES beside them. ξ: configuration not given here. *: point of attachment. d(aThr) = C[C@@H](O)[C@@H](N)C(=O)O; ξThr(3R) = C[C@@H](O)C(N)C(=O)O; X3 = CC[C@@H](C)CCCCC(=O)*; dDab = NCC[C@@H](N)C(=O)O
REPORTED_ENDPOINT: outcome

CC[C@@H](C)CCCCC(=O)N[C@H](CCN)C(=O)N[C@@H](C(=O)N[C@H](CCN)C(=O)N[C@@H]1CCNC(=O)C([C@@H](C)O)NC(=O)[C@@H](CCN)NC(=O)[C@@H](CCN)NC(=O)[C@@H](CC(C)C)NC(=O)[C@@H](Cc2ccccc2)NC(=O)[C@@H](CCN)NC1=O)[C@@H](C)O (stereo partly drawn) (X3-[dDab][d(aThr)][dDab][dDab][dDab][dF][dL][dDab][dDab][ξThr(3R)]; lactam 4-C) ... inactive
O=C(CCCCCCCCCCCCC1CCCC1)Nc1ccc(S(=O)(=O)c2ccc(NC(=O)CCCCCCCCCCCCC3CCCC3)cc2)cc1 ... inactive
